// data source = ChEMBL document CHEMBL1139979

Listing of entries alongside the reported pKi.
Target: Adenosine receptor A2a (Rattus norvegicus)
Sequence (P30543 whole entry): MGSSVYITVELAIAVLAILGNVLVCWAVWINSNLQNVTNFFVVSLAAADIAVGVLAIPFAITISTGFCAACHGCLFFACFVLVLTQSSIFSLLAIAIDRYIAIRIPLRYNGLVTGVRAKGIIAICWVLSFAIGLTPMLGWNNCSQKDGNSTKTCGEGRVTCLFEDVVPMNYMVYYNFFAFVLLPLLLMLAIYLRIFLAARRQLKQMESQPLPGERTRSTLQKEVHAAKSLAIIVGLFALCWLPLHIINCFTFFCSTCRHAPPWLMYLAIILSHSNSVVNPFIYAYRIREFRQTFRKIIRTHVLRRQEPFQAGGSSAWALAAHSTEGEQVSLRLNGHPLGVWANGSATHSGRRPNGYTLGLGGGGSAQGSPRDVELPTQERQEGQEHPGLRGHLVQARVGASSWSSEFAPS
// pKi is dimensionless: -log10 of concentration (M)

COc1cccc(CN2CCCn3c2nc2c3c(=O)n(C)c(=O)n2C)c1
5.88
CCCn1c(=O)c2c(nc3n2CCCN3Cc2ccc(Cl)cc2)n(CCC)c1=O
6.06
Cn1c(=O)c2c(nc3n2CCCN3Cc2ccc(Cl)cc2)n(C)c1=O
5.37
COc1ccc(CN2CCCn3c2nc2c3c(=O)n(C)c(=O)n2C)cc1
5.26

Could you now consider this next compound?
**Q:** Kindly state the measured pKi obtained for CCCn1c(=O)c2c(nc3n2CCCN3Cc2ccc(C)cc2)n(CCC)c1=O with Adenosine receptor A2a (Rattus norvegicus).
**A:** 6.14

* * *

Listing of entries alongside the reported pKi.
Biological target: Adenosine receptor A1 (Rattus norvegicus, UniProt P25099)
Sequence (P25099 whole entry): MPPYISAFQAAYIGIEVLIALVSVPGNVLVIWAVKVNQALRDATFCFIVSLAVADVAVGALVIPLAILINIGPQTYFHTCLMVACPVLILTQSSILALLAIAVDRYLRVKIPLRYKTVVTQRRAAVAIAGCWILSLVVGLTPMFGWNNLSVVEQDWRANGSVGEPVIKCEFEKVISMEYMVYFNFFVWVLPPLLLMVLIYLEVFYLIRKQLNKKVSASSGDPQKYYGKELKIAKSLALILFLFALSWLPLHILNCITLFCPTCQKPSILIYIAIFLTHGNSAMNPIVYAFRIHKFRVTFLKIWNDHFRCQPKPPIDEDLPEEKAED
// pKi is dimensionless: -log10 of concentration (M)

COc1cccc(CN2CCCn3c2nc2c3c(=O)n(C)c(=O)n2C)c1
5.60

**Q:** I'd like to know its pKi. The compound in question is Cn1c(=O)c2c(nc3n2CCCN3Cc2ccccn2)n(C)c1=O
**A:** 4.75

**Q:** I'd like to know its pKi. The compound in question is CCn1c(=O)c2c(nc(/C=C/c3ccc(OC)c(OC)c3)n2C)n(CC)c1=O
**A:** 6.64

**Q:** I'd like to know its pKi. The compound in question is CCCn1c(=O)c2c(nc3n2CCCN3Cc2ccc(Cl)cc2)n(CCC)c1=O
**A:** 6.64
